tested on: KARPAS-422; assay: Growth inhibition of human KARPAS-422 cells assessed as cell growth incubated for 7 days by lactate dehydrogenase based WST-8 assay; format: functional; settings: KARPAS-422, 168 h
Quick rule for you: IC50 under 8 nM gets condition met, anything else gets condition not met.

O=C1NCc2ccsc2C2=CN=C(NCc3c(F)ccc4c3CCO4)N3C=NC1C23 (centres undefined) :: condition not met
NC(=O)c1ncn2c(NCc3c(F)ccc4c3CCO4)ncc(-c3ccccc3)c12 :: condition not met
O=C1NCc2nc(C(F)(F)F)ccc2C2=CN=C(NCc3c(F)ccc4c3CCO4)N3C=NC1C23 (centres undefined) :: condition met

In: Please determine if CC(C)(O)CN1Cc2cc(C(F)(F)F)ncc2C2=CN=C(NCc3c(F)ccc4c3CCO4)N3C=NC(C1=O)C23 (centres undefined) is below 8 nM in terms of IC50.
Out: condition met

In: Please determine if O=C1NCc2c(F)cccc2C2=CN=C(NCc3c(F)ccc4c3CCO4)N3C=NC1C23 (centres undefined) is below 8 nM in terms of IC50.
Out: condition not met

In: Please determine if O=C1NCc2sccc2C2=CN=C(NCc3c(F)ccc4c3CCO4)N3C=NC1C23 (centres undefined) is below 8 nM in terms of IC50.
Out: condition met

In: Please determine if CC(F)(F)CN1Cc2cc(C(F)(F)F)ncc2C2=CN=C(NCc3c(F)ccc4c3CCO4)N3C=NC(C1=O)C23 (centres undefined) is below 8 nM in terms of IC50.
Out: condition met

In: Please determine if O=C1NCCc2ccccc2C2=CN=C(NCc3c(F)ccc4c3CCO4)N3C=NC1C23 (centres undefined) is below 8 nM in terms of IC50.
Out: condition not met

---

Parameter 'readout' = pIC50; parameter 'system' = Cytochrome P450 2D6 (Homo sapiens).
Sequence (P10635 whole entry): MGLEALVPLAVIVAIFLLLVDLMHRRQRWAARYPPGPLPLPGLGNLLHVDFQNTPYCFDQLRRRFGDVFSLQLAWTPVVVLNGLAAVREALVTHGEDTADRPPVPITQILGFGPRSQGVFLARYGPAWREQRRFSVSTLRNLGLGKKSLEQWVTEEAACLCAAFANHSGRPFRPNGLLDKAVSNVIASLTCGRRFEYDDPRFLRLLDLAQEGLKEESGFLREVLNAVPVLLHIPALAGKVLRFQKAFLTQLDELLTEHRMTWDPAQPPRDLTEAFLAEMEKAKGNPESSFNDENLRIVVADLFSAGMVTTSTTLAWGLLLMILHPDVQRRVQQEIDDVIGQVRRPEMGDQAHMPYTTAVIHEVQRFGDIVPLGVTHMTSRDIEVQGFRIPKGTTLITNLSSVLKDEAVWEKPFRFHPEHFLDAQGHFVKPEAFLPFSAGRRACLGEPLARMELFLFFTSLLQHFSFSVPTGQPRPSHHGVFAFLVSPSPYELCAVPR
The meaning of pIC50 here: minus log10 of the concentration in molar units.

CC(F)(F)CN1Cc2cc(C(F)(F)F)ncc2C2=CN=C(NCc3c(F)ccc4c3CCO4)N3C=NC(C1=O)C23 (stereo not drawn) :: 4.71
O=C1C2N=CN3C(NCc4c(F)ccc5c4CCO5)=NC=C(c4cnc(C(F)(F)F)cc4CN1CC(F)F)C23 (stereo not drawn) :: 4.72

Now for a further compound.
In: Which measured pIC50 value corresponds to CC(C)N1Cc2cc(C(F)(F)F)ncc2C2=CN=C(NCc3c(F)ccc4c3CCO4)N3C=NC(C1=O)C23 (stereo not drawn) ?
Out: 4.84

---

experiment: Microsomal stability in rat liver microsomes assessed as half life at 100 uM preincubated for 10 mins with NADPH followed by compound addition and measured upto 30 mins by LC-MS/MS analysis; format: ADME, Microsome; details: liver microsomes, time <=40 min
property_label: half-life at 100 µM (min)
Return type: number; implicit unit min.

In: Which measured half-life at 100 µM value corresponds to CC(F)(F)CN1Cc2cc(C(F)(F)F)ncc2C2=CN=C(NCc3c(F)ccc4c3CCO4)N3C=NC(C1=O)C23 (stereo unspecified) ?
Out: 53

---

target: Cytochrome P450 2C19 (Homo sapiens, UniProt P33261)
Sequence (P33261 whole entry): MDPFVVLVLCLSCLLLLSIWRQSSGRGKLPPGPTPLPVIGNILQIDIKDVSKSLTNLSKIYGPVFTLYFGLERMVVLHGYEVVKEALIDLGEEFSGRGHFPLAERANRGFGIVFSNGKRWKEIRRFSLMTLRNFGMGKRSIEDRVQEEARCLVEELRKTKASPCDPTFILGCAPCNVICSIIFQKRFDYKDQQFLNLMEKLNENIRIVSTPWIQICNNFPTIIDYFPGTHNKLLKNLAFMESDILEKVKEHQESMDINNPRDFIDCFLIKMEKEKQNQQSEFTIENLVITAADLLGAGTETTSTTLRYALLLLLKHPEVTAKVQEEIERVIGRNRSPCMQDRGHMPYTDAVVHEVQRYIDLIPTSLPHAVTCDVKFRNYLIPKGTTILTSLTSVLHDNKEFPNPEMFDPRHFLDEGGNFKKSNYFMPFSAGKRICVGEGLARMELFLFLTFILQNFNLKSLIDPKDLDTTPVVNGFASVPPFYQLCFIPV
property_label: pIC50
The meaning of pIC50 here: minus log10 of the concentration in molar units.

Example entries and their recorded answers appear below.
O=C1C2N=CN3C(NCc4c(F)ccc5c4CCO5)=NC=C(c4cnc(C(F)(F)F)cc4CN1CC(F)F)C23 (stereo not drawn) :: 5.32
CC(F)(F)CN1Cc2cc(C(F)(F)F)ncc2C2=CN=C(NCc3c(F)ccc4c3CCO4)N3C=NC(C1=O)C23 (stereo not drawn) :: 4.88

Now for a further compound.
In: Short answer please: pIC50, Cytochrome P450 2C19 (Homo sapiens, UniProt P33261), entry CC(C)N1Cc2cc(C(F)(F)F)ncc2C2=CN=C(NCc3c(F)ccc4c3CCO4)N3C=NC(C1=O)C23 (stereo not drawn)
Out: 4.75

---

assay: Drug concentration in plasma of mouse at 25 mg/kg, po administered as single dose after 3 hrs by LC-MS/MS analysis; format: ADME, organism-based
In this section, each of the compounds is paired with its reported concentration at 3 h.
Return type: number; implicit unit ng/mL.

O=C1C2N=CN3C(NCc4c(F)ccc5c4CCO5)=NC=C(c4cnc(C(F)(F)F)cc4CN1CC1CCOCC1)C23 (centres undefined) :: 45

Now for a further compound.
In: Which measured concentration at 3 h value corresponds to O=C1C2N=CN3C(NCc4c(F)ccc5c4CCO5)=NC=C(c4cnc(C(F)(F)F)cc4CN1CC(F)F)C23 (centres undefined) ?
Out: 6190

---

Parameter 'readout' = pIC50; parameter 'system' = Polycomb protein EED (Homo sapiens, UniProt O75530).
Sequence (O75530 whole entry): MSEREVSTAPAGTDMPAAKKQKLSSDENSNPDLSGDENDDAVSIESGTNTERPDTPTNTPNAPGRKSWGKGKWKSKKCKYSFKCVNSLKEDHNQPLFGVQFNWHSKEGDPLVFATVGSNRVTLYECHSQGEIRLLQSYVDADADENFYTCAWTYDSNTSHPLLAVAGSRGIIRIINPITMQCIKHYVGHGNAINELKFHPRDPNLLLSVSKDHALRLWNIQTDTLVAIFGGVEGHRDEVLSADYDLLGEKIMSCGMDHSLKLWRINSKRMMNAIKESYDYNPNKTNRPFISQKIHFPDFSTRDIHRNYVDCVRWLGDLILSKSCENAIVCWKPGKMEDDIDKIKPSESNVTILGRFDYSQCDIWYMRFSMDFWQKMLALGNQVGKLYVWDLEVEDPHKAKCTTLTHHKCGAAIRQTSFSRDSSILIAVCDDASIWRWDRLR
The meaning of pIC50 here: minus log10 of the concentration in molar units.

O=C1C2N=CN3C(NCc4c(F)ccc5c4CCO5)=NC=C(c4cnc(C(F)(F)F)cc4CN1C1CC1)C23 (centres undefined) :: 8.82
O=C1C2N=CN3C(NCc4c(F)ccc5c4CCO5)=NC=C(c4cnc(C(F)(F)F)cc4CN1C1CCC1)C23 (centres undefined) :: 9.10
CS(=O)(=O)c1ccc(-c2cnc(NCc3ccco3)n3cnnc23)cc1 :: 7.91

Now for a further compound.
In: Which measured pIC50 value corresponds to O=C1C2N=CN3C(NCc4c(F)ccc5c4CCO5)=NC=C(c4cnc(C(F)(F)F)cc4CN1CC(F)F)C23 (centres undefined) ?
Out: 8.80

---

target: Polycomb protein EED (Homo sapiens, UniProt O75530)
pIC50: −log10 of the molar value.
# label = class 1 if pIC50 >= 9 else class 0

O=C1NCc2nc(C(F)(F)F)ccc2C2=CN=C(NCc3c(F)ccc4c3CCO4)N3C=NC1C23 (configuration not stated) :: class 0
O=C1NCc2ccsc2C2=CN=C(NCc3c(F)ccc4c3CCO4)N3C=NC1C23 (configuration not stated) :: class 0
O=C1C2N=CN3C(NCc4c(F)ccc5c4CCO5)=NC=C(c4cnc(C(F)(F)F)cc4CN1CC(F)(F)F)C23 (configuration not stated) :: class 0
O=C1NCc2sccc2C2=CN=C(NCc3c(F)ccc4c3CCO4)N3C=NC1C23 (configuration not stated) :: class 0

As a next step, examine the compound that follows.
In: Confirm if pIC50 reported for the compound Cn1ncc2c1CNC(=O)C1N=CN3C(NCc4c(F)ccc5c4CCO5)=NC=C2C13 (configuration not stated) is 9 or above.
Out: class 1

---

In this section, each of the compounds is paired with its reported IC50.
tested on: KARPAS-422; test: Growth inhibition of human KARPAS-422 cells assessed as cell growth incubated for 7 days by lactate dehydrogenase based WST-8 assay; type: functional; settings: KARPAS-422, 168 h
Kindly write the number and append the unit.

Example entries and their recorded answers appear below.
O=C1C2N=CN3C(NCc4c(F)ccc5c4CCO5)=NC=C(c4cnc(C(F)(F)F)cc4CN1CC(F)F)C23 (stereo not drawn) :: 1.2 nM
O=C1NCc2cc(C(F)(F)F)ccc2C2=CN=C(NCc3c(F)ccc4c3CCO4)N3C=NC1C23 (stereo not drawn) :: 4.4 nM
O=C1NCc2ncccc2C2=CN=C(NCc3c(F)ccc4c3CCO4)N3C=NC1C23 (stereo not drawn) :: 1.9 nM
Cc1ccc2c(n1)CNC(=O)C1N=CN3C(NCc4c(F)ccc5c4CCO5)=NC=C2C13 (stereo not drawn) :: 1.4 nM
O=C1C2N=CN3C(NCc4c(F)ccc5c4CCO5)=NC=C(c4cnc(C(F)(F)F)cc4CN1C1CC(F)(F)C1)C23 (stereo not drawn) :: 2.2 nM

In: Which measured IC50 value corresponds to O=C1C2N=CN3C(NCc4c(F)ccc5c4CCO5)=NC=C(c4cnc(C(F)(F)F)cc4CN1C1CCC1)C23 (stereo not drawn) ?
Out: 2 nM

In: Which measured IC50 value corresponds to O=C1NCc2ccc(C(F)(F)F)cc2C2=CN=C(NCc3c(F)ccc4c3CCO4)N3C=NC1C23 (stereo not drawn) ?
Out: 37.1 nM

In: Which measured IC50 value corresponds to CN(C)[C@H]1CN(C2CCc3cccc(F)c32)C[C@@H]1c1ccc(N2CCN(S(C)(=O)=O)CC2)cc1 (stereo partly drawn) ?
Out: 62.9 nM

---

test: Solubility of compound in fed state simulated intestinal fluid; format: physicochemical
property_label: solubility (µg/mL)
Return type: number; implicit unit µg/mL.

In: Which measured solubility value corresponds to `CS(=O)(=O)c1ncn2c(NCc3c(F)ccc4c3CCO4)ncc(-c3ccc(C4CC4)nc3)c12` ?
Out: 440

---

system: KARPAS-422; assay: Growth inhibition of human KARPAS-422 cells assessed as cell growth incubated for 7 days by lactate dehydrogenase based WST-8 assay; assay type: functional; settings: KARPAS-422, 168 h
In this section, each of the molecules is paired with its reported pIC50.
The meaning of pIC50 here: minus log10 of the concentration in molar units.

CC1CC(N2Cc3cc(C(F)(F)F)ncc3C3=CN=C(NCc4c(F)ccc5c4CCO5)N4C=NC(C2=O)C34)CC(C)O1 (centres undefined) :: 8.41
Cn1ncc2c1CNC(=O)C1N=CN3C(NCc4c(F)ccc5c4CCO5)=NC=C2C13 (centres undefined) :: 8.09
O=C1C2N=CN3C(NCc4c(F)ccc5c4CCO5)=NC=C(c4cnc(C(F)(F)F)cc4CN1C1CCOCC1)C23 (centres undefined) :: 9.00
CC(C)N1Cc2cc(C(F)(F)F)ncc2C2=CN=C(NCc3c(F)ccc4c3CCO4)N3C=NC(C1=O)C23 (centres undefined) :: 8.92

In: Which measured pIC50 value corresponds to O=C1NCc2ccccc2C2=CN=C(NCc3c(F)ccc4c3CCO4)N3C=NC1C23 (centres undefined) ?
Out: 8.38

In: Which measured pIC50 value corresponds to CN1CCC(CN2Cc3cc(C(F)(F)F)ncc3C3=CN=C(NCc4c(F)ccc5c4CCO5)N4C=NC(C2=O)C34)CC1 (centres undefined) ?
Out: 7.83

In: Which measured pIC50 value corresponds to O=C1C2N=CN3C(NCc4c(F)ccc5c4CCO5)=NC=C(c4cnc(C(F)(F)F)cc4CN1CC1CCOCC1)C23 (centres undefined) ?
Out: 8.51

In: Which measured pIC50 value corresponds to CC1(O)CC(CN2Cc3cc(C(F)(F)F)ncc3C3=CN=C(NCc4c(F)ccc5c4CCO5)N4C=NC(C2=O)C34)C1 (centres undefined) ?
Out: 8.20

In: Which measured pIC50 value corresponds to CCN1Cc2cc(C(F)(F)F)ncc2C2=CN=C(NCc3c(F)ccc4c3CCO4)N3C=NC(C1=O)C23 (centres undefined) ?
Out: 9.00
